Origin of the recorded values: the NIST ThermoML archive (doi:10.1021/je201289w)

For each of the compounds below, state its refractive index.
# protocol: refractive index (Na D-line) (dimensionless)
# cond: 288.15 K; 101.33 kPa; Liquid; Standard Abbe refractometry
Give bare numbers.

compound	result-value
CCCCn1cc[n+](C)c1.O=S(=O)([N-]S(=O)(=O)C(F)(F)C(F)(F)C(F)(F)C(F)(F)F)C(F)(F)C(F)(F)C(F)(F)C(F)(F)F	1.39104
CCn1cc[n+](C)c1.CS(=O)(=O)[O-] [1-ethyl-3-methylimidazolium methanesulfonate]	1.49855
CCn1cc[n+](C)c1.O=S(=O)([O-])O [1-ethyl-3-methylimidazolium hydrogen sulfate]	1.49931

State recorded refractive index for all listed compounds.
1. CCn1cc[n+](C)c1.O=S(=O)([N-]S(=O)(=O)C(F)(F)F)C(F)(F)F
2. CCn1cc[n+](C)c1.N#CN=C=[N-] [1-ethyl-3-methylimidazolium dicyanamide]
3. CCOS(=O)(=O)[O-].CCn1cc[n+](C)c1 [1-ethyl-3-methylimidazolium ethyl sulfate]
4. CCC[N+]1(C)CCCC1.O=S(=O)([N-]S(=O)(=O)C(F)(F)F)C(F)(F)F
5. CCn1cc[n+](C)c1.N#C[S-] [1-ethyl-3-methylimidazolium thiocyanate]
6. CCn1cc[n+](C)c1.F[B-](F)(F)F [1-ethyl-3-methylimidazolium tetrafluoroborate]
7. CCn1cc[n+](C)c1.N#C[B-](C#N)(C#N)C#N [1-ethyl-3-methylimidazolium tetracyanoborate]

1: 1.42594; 2: 1.51605; 3: 1.48185; 4: 1.42336; 5: 1.5545; 6: 1.41423; 7: 1.45108
